# credit: the supplement of paper PMC10065799

target: Grb2 SH2 (UniProt P62993); test: SH2 binding enrichment of the phosphorylated peptide, bacterial display (enrichment ratio); higher = better substrate or ligand; peptides without Tyr show the background
Sequence (P62993 whole entry, looked up): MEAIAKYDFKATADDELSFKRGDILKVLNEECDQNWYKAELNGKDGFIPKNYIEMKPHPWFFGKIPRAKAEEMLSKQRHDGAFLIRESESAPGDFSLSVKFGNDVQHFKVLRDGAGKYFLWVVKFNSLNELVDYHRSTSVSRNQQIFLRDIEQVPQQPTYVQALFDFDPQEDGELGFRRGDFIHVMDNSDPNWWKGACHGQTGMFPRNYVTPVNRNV
READOUT LABEL: SH2 binding enrichment
Hey, just send me the number, nothing else.

1. GPGLVYGVANK [FLNB_Y1833]
0.732
2. PFQGAYLEINK [MYO1B_Y967]
0.874
3. GEEIKYMLWLS [OTC_Y55]
0.646
4. ANNPLYKEATS [ITGB3_Y773]
1.04
5. DDHFTYSRFPW [LY75_Y888_YF]
0.833
6. FPIDHYLGKEM [G6PD_Y202_R198P_YF]
0.908
7. DRLASYLDKAR [KRT14_Y129_V133A]
0.874
8. SFPPTYRFERG [INPPL1_Y661_YF]
0.868

Prompt line: // query SH2 binding enrichment value for entry RSPLRYISILT [OR51B6_Y130_T131I]
Response line: 1.01

Prompt line: Look at this sequence and give its reported SH2 binding enrichment. HNQDGYSYLSR [LDLR_Y845_P848L]
Response line: 0.698

Prompt line: Which value of SH2 binding enrichment has been reported for KRNSLYSFSDH [CCDC82_Y331_Q327R] in the records?
Response line: 0.89

Prompt line: So what does the record say about SH2 binding enrichment for RLQAAYNLVKR [PFKM_Y103_R100Q] ?
Response line: 1.86

---

Quick reference: phosphorylation enrichment of the listed items.
molecular target: FGFR1 (UniProt P11362); test: phosphorylation enrichment, bacterial display (enrichment ratio); higher = better substrate or ligand; peptides without Tyr show the background
Sequence (P11362 whole entry, looked up): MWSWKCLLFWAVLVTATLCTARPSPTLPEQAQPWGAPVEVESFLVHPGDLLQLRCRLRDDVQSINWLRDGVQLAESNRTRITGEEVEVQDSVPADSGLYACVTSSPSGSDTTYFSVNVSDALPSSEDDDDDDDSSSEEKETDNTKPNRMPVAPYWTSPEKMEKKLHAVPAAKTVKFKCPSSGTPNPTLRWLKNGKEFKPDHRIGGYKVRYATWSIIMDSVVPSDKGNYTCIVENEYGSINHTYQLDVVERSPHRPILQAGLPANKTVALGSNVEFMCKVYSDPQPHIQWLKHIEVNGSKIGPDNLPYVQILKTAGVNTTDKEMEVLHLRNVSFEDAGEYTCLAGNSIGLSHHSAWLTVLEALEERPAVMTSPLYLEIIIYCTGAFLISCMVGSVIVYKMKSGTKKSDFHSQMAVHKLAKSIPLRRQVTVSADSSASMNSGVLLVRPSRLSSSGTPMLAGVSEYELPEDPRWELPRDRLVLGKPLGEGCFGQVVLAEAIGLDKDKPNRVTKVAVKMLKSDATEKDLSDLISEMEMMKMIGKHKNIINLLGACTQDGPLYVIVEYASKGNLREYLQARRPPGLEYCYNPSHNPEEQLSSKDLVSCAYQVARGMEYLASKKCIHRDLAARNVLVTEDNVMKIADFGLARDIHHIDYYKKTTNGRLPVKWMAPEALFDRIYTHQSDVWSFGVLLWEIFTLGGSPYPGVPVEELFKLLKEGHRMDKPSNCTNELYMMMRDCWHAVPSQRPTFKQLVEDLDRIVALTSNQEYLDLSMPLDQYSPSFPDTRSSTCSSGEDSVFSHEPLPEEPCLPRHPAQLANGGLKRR
// return a plain number; no unit text

// known answers, use as guide
1) GEEIKDMLWLS [OTC_Y55_Y55D]
0.475
2) IHADICRWFNI [MARS1_Y344_Y344C]
0.413
3) KNNDGYTDYAE [MCFD2_Y135_I136T]
0.515
4) PDMHSYVVRFN [GRIN2D_Y732_M733V_YF]
0.78
5) EPSVDYCVVKI [CAD_Y735]
2.25

Prompt line: What value of phosphorylation enrichment has been reported for the following sequence? SVMVPYEPPEV [TP53_Y220_V217M]
Response line: 0.52

Prompt line: Could you share which phosphorylation enrichment value was measured for PVGDVYKKKGL [NMNAT1_Y55_A54V] ?
Response line: 0.498

---

target: Fes (UniProt P07332); experiment: phosphorylation enrichment, bacterial display (enrichment ratio); higher = better substrate or ligand; peptides without Tyr show the background
Sequence (P07332 whole entry, looked up): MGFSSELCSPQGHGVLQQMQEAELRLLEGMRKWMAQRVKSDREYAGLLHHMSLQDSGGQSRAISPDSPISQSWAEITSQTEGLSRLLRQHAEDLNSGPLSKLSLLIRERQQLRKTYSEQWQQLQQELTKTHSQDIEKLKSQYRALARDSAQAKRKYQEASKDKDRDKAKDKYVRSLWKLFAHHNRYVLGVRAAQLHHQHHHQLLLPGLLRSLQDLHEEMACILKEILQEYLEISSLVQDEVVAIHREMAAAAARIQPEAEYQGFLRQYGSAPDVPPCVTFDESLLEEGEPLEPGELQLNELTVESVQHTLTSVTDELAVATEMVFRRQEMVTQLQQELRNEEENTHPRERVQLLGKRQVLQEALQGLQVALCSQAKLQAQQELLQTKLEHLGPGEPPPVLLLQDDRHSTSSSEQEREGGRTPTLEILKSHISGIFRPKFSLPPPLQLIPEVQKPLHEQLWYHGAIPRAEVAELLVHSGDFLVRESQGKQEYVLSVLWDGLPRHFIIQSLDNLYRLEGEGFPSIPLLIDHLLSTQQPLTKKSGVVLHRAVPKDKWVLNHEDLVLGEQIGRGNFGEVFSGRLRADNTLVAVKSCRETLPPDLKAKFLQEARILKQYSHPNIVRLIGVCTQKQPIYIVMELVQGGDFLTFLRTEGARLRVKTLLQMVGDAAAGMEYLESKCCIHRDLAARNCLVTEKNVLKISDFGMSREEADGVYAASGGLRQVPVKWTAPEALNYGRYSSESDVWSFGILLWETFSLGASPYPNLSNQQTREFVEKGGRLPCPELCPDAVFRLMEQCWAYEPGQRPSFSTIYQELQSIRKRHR
The threshold is inclusive: phosphorylation enrichment of exactly 1 counts as true; values below receive false.

1. SVVVPYEPAEV [TP53_Y220_P223A]
true
2. FTAVGYHKHFT [NOMO1_Y1137_I1141F]
false
3. NCFKFYMSDDI [ATRX_Y204_YF]
true
4. LLDGEYFTLQI [TP53_Y327_P322L]
true
5. GQSKGYRPKLY [SIPA1L3_Y1376]
false
6. GEVLVYVEDPA [FLNA_Y319]
true
7. AKYLGYPPPEI [KDR_Y357]
false
8. EVEFQYPFRLH [SYP_Y73_E72Q]
true
9. HYEFKYVINAI [MAOA_Y268_C266F]
true
10. SRDTRYLVLAV [AMH_Y195]
true

Prompt line: Assess whether reported phosphorylation enrichment for HLQQSNLPRGT [TEX45_Y396_Y396N] sits at 1 or higher.
Response line: false

Prompt line: Please tell me: is the sequence QPAGNYSLSSV [ARFGAP3_Y473] at or over 1 in terms of phosphorylation enrichment?
Response line: false

Prompt line: Could you tell me if the measured phosphorylation enrichment of NPQKSYFILLY [WAS_Y83_R86L] reaches 1 or more?
Response line: true

Prompt line: Has DTQNSYGCATS [TSC1_Y304] a recorded phosphorylation enrichment greater than or equal to 1?
Response line: false
